Molecular target: rh integrin α4β7 (Homo sapiens, UniProt P13612+P26010)
Construct: purchased R&D Systems 5397-A30
Sequence (P13612 34-977 limits assumed): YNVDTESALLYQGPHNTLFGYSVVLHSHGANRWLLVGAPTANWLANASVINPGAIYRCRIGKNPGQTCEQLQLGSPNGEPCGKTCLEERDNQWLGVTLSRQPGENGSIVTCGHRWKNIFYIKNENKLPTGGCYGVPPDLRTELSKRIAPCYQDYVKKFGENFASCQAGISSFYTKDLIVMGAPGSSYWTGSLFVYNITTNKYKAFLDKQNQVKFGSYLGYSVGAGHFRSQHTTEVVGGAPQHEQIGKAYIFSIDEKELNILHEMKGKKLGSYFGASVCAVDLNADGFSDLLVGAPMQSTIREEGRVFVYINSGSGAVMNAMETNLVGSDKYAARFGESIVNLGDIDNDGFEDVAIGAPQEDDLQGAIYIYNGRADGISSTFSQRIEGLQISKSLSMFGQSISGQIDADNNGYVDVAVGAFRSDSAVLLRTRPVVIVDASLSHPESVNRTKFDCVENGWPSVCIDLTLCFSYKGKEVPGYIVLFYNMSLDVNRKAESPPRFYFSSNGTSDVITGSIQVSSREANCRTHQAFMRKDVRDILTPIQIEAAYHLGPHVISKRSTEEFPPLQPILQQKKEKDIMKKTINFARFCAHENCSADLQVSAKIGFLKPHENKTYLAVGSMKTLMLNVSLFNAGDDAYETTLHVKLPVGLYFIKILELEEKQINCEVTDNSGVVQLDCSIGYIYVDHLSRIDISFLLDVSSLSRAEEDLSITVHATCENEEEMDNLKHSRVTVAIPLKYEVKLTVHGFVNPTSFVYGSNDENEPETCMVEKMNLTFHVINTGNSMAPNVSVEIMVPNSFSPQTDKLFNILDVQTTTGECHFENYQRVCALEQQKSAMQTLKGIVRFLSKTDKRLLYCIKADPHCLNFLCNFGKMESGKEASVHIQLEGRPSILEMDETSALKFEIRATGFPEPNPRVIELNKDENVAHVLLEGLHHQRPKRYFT
Sequence (P26010 20-723 limits assumed): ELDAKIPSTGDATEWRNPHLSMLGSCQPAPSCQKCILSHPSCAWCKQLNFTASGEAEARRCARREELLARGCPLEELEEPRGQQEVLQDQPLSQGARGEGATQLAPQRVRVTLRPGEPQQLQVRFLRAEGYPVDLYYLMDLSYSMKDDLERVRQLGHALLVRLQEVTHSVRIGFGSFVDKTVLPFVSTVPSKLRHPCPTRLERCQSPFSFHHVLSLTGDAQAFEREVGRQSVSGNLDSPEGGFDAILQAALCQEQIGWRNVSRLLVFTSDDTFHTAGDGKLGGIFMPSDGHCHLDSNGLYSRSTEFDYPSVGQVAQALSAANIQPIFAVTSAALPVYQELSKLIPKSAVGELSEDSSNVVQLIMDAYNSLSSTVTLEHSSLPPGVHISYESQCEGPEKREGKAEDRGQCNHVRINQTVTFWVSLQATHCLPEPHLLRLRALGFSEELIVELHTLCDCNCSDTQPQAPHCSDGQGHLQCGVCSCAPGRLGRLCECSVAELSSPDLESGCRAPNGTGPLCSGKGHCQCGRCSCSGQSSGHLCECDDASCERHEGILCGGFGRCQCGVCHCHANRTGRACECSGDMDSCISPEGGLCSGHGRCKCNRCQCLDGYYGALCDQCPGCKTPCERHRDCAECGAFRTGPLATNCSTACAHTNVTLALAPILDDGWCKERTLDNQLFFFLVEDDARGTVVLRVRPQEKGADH
Assay: α4β7-MAdCAM Competition ELISA
Type: binding
Settings: thioether monomer peptides, Table 6; read-out: ELISA A4B7
Where a SMILES comes first, the peptide text is derived from it.
Would you kindly list IC50 for each of these compounds?

Worked cases, answers included:
{"columns": ["compound", "measured target", "IC50"],
 "data": [
  ["CC(C)C[C@@H]1NC(=O)[C@H]([C@@H](C)O)NC(=O)[C@H](CC(=O)O)NC(=O)[C@H](CO)NC(=O)[C@H](CCCNC(=N)N)N(C)C(=O)c2ccccc2CSC(C)(C)[C@@H](C(=O)N[C@@H](Cc2ccccc2)C(=O)N[C@@H](CCC(=O)O)CC(=O)N[C@H](CCCCN)C(N)=O)NC1=O [compound 73] (HELM PEPTIDE1{[meR].S.D.T.L.[Pen].F.[O=C(O)CC[C@@H](CC(=O)[*:2])N[*:1]].[dK].[am]}|CHEM1{[O=C(c1ccccc1C[*:2])[*:1]]}$PEPTIDE1,CHEM1,1:R1-1:R1|PEPTIDE1,CHEM1,6:R3-1:R2$$$V2.0)", "rh integrin α4β7 (Homo sapiens, UniProt P13612+P26010)", "< 25 nM"],
  ["CC(C)C[C@@H]1NC(=O)[C@H]([C@@H](C)O)NC(=O)[C@H](CC(=O)O)NC(=O)[C@H](CO)NC(=O)[C@H](CCCNC(=N)N)N(C)C(=O)C(C)SC[C@@H](C(=O)N[C@@H](Cc2c[nH]c3ccccc23)C(=O)N[C@H](CCCCN)C(N)=O)NC1=O (single isomer, unassigned)", "rh integrin α4β7 (Homo sapiens, UniProt P13612+P26010)", "25 to 100 nM"],
  ["CC(C)C[C@@H]1NC(=O)[C@H]([C@@H](C)O)NC(=O)[C@H](CC(=O)O)NC(=O)[C@H](CO)NC(=O)[C@H](CCCNC(=N)N)N(C)C(=O)c2ccccc2CSC(C)(C)[C@@H](C(=O)N[C@@H](Cc2c[nH]c3ccccc23)C(=O)N[C@H](CCC(=O)O)C(=O)N[C@@H](Cc2ccccc2)C(N)=O)NC1=O [compound 101] (HELM PEPTIDE1{[meR].S.D.T.L.[Pen].W.[dE].F.[am]}|CHEM1{[O=C(c1ccccc1C[*:2])[*:1]]}$PEPTIDE1,CHEM1,1:R1-1:R1|PEPTIDE1,CHEM1,6:R3-1:R2$$$V2.0)", "rh integrin α4β7 (Homo sapiens, UniProt P13612+P26010)", "< 25 nM"],
  ["CC(C)C[C@@H]1NC(=O)[C@H]([C@@H](C)O)NC(=O)[C@H](CC(=O)O)NC(=O)[C@H](CO)NC(=O)[C@H](CCCNC(=N)N)N(C)C(=O)c2ccccc2CSC(C)(C)[C@@H](C(=O)N[C@@H](Cc2c[nH]c3ccccc23)C(=O)N[C@H](CCC(=O)O)C(=O)N[C@H](CCC(=O)O)C(N)=O)NC1=O [compound 108] (HELM PEPTIDE1{[meR].S.D.T.L.[Pen].W.[dE].[dE].[am]}|CHEM1{[O=C(c1ccccc1C[*:2])[*:1]]}$PEPTIDE1,CHEM1,1:R1-1:R1|PEPTIDE1,CHEM1,6:R3-1:R2$$$V2.0)", "rh integrin α4β7 (Homo sapiens, UniProt P13612+P26010)", "< 25 nM"],
  ["CC(C)C[C@@H]1NC(=O)[C@H]([C@@H](C)O)NC(=O)[C@H](CC(=O)O)NC(=O)[C@H](CO)NC(=O)[C@H](CCCNC(=N)N)N(C)C(=O)c2ccccc2CSC(C)(C)[C@@H](C(=O)N[C@@H](Cc2ccc(O)cc2)C(=O)N[C@@H](CCC(=O)O)CC(=O)N[C@H](CCCCN)C(N)=O)NC1=O [compound 74] (HELM PEPTIDE1{[meR].S.D.T.L.[Pen].Y.[O=C(O)CC[C@@H](CC(=O)[*:2])N[*:1]].[dK].[am]}|CHEM1{[O=C(c1ccccc1C[*:2])[*:1]]}$PEPTIDE1,CHEM1,1:R1-1:R1|PEPTIDE1,CHEM1,6:R3-1:R2$$$V2.0)", "rh integrin α4β7 (Homo sapiens, UniProt P13612+P26010)", "< 25 nM"],
  ["CC(C)C[C@@H]1NC(=O)[C@H]([C@@H](C)O)NC(=O)[C@H](CC(=O)O)NC(=O)[C@H](CO)NC(=O)[C@H](CCCNC(=N)N)N(C)C(=O)c2ccccc2CSC(C)(C)[C@@H](C(=O)N[C@@H](Cc2c[nH]c3ccccc23)C(=O)N[C@H](CCC(=O)O)C(=O)N[C@@H](CCC(=O)O)C(N)=O)NC1=O [compound 113] (HELM PEPTIDE1{[meR].S.D.T.L.[Pen].W.[dE].E.[am]}|CHEM1{[O=C(c1ccccc1C[*:2])[*:1]]}$PEPTIDE1,CHEM1,1:R1-1:R1|PEPTIDE1,CHEM1,6:R3-1:R2$$$V2.0)", "rh integrin α4β7 (Homo sapiens, UniProt P13612+P26010)", "< 25 nM"],
  ["CC(C)C[C@@H]1NC(=O)[C@H]([C@@H](C)O)NC(=O)[C@H](CC(=O)O)NC(=O)[C@H](CO)NC(=O)[C@H](CCCNC(=N)N)N(C)C(=O)c2ccccc2CSC(C)(C)[C@@H](C(=O)N[C@@H](Cc2ccc(O)cc2)C(=O)N[C@@H](CCC(=O)O)C(=O)N[C@H](CCCCN)C(N)=O)NC1=O [compound 78] (HELM PEPTIDE1{[meR].S.D.T.L.[Pen].Y.E.[dK].[am]}|CHEM1{[O=C(c1ccccc1C[*:2])[*:1]]}$PEPTIDE1,CHEM1,1:R1-1:R1|PEPTIDE1,CHEM1,6:R3-1:R2$$$V2.0)", "rh integrin α4β7 (Homo sapiens, UniProt P13612+P26010)", "< 25 nM"],
  ["CC(C)C[C@@H]1NC(=O)[C@H]([C@@H](C)O)NC(=O)[C@H](CC(=O)O)NC(=O)[C@H](CO)NC(=O)[C@H](CCCNC(=N)N)N(C)C(=O)C(C)(C)SC[C@@H](C(=O)N[C@@H](Cc2c[nH]c3ccccc23)C(=O)N[C@H](CCCCN)C(N)=O)NC1=O", "rh integrin α4β7 (Homo sapiens, UniProt P13612+P26010)", "> 1000 nM"]
]}

# input for lookup
What measured IC50 goes with CC(C)C[C@@H]1NC(=O)[C@H]([C@@H](C)O)NC(=O)[C@H](CC(=O)O)NC(=O)[C@H](CO)NC(=O)[C@H](CCCNC(=N)N)N(C)C(=O)c2ccccc2CSC(C)(C)[C@@H](C(=O)N[C@@H](Cc2c[nH]c3ccccc23)C(=O)N[C@H](CCC(=O)O)C(=O)N[C@@H](Cc2ccc(O)cc2)C(N)=O)NC1=O [compound 104] (HELM PEPTIDE1{[meR].S.D.T.L.[Pen].W.[dE].Y.[am]}|CHEM1{[O=C(c1ccccc1C[*:2])[*:1]]}$PEPTIDE1,CHEM1,1:R1-1:R1|PEPTIDE1,CHEM1,6:R3-1:R2$$$V2.0) ?
< 25 nM

Origin of the recorded values: patent US20260217767A1
